tested on: ICS; assay: qHTS profiling for inhibitors of Plasmodium falciparum proliferation (AID 504749); note: nearly all actives have a fitted effect of over 60% in size; settings: P. falciparum in erythrocytes, SYBR Green DNA, 72 h; series mostly up to 28.7 µM
Inconclusive results are not listed. Calls of active or inactive are those of the source. Calls come from the whole dose curve; as a rule, active = well fitted inhibition curve with a large enough effect; inconclusive = small, poorly fitted or top-dose-only effect; inactive = flat fitted curve, though single readings scatter.
Hi! Could you answer with just one of these? active, inactive

Some solved cases for reference:
compound	classAssignment
NC(=S)NS(=O)(=O)c1ccc(N)cc1	inactive
CN(C)C(=O)CCSC(SCCC(=O)O)c1cccc(/C=C/c2ccc3ccc(Cl)cc3n2)c1 (configuration not stated)	active
CCCCCCCCCCCC(=O)N(CCO)CCO	inactive

Task: # lookup: test call for CC(=O)Oc1cccc(C(=O)O)c1OC(C)=O
Output: inactive

Task: Follow-up entry: C=C1C(CCl)(CCl)C2(Cl)C(Cl)C(Cl)C1(Cl)C2(Cl)Cl (configuration not stated)
Output: active

Task: # iterate: CNC(=O)C[C@@H](N)C(=O)N[C@@H](C(=O)N[C@@H]1C(=O)N2[C@@H]1SC(C)(C)[C@@H]2C(=O)O)c1ccc(O)cc1
Output: inactive

Task: Field entry: NCCN
Output: inactive

Task: Okay, and O=P(O)(O)OC[C@H]1O[C@](O)(COP(=O)(O)O)[C@@H](O)[C@@H]1O ?
Output: inactive

Task: Next compound up: C[Se]CC[C@H](N)C(=O)O
Output: inactive

Task: Also need CCC(Cc1c(I)cc(I)c(O)c1I)C(=O)O (configuration not stated) , thanks.
Output: inactive

Task: Another: C[C@H]1O[C@@H](O[C@H]2[C@@H](O)C[C@H](O[C@H]3[C@@H](O)C[C@H](O[C@H]4CC[C@@]5(C)[C@H](CC[C@@H]6[C@@H]5C[C@@H](O)[C@]5(C)[C@@H](C7=CC(=O)OC7)CC[C@]65O)C4)O[C@@H]3C)O[C@@H]2C)C[C@H](O)[C@@H]1O
Output: inactive

Task: Would you mind doing CC(C)CCC[C@@H](C)[C@H]1CC[C@H]2[C@@H]3CC[C@@H]4C[C@H](O)CC[C@]4(C)[C@H]3CC[C@]12C as well?
Output: inactive

Task: Similarly, CCCOC(=O)c1ccccc1O ?
Output: inactive

Task: Next compound: CC(C)CCCCCCc1ccc(O)cc1
Output: active

Task: And NCC(O)CC(=O)O (configuration not stated) ?
Output: inactive

Task: Do the same for Cc1c(Cl)cccc1Nc1ncccc1C(=O)O please
Output: inactive

Task: Please answer likewise for C[C@H](CCCC(C)(C)O)[C@H]1CC[C@H]2[C@@H]3CC=C4C[C@@H](O)CC[C@]4(C)[C@H]3CC[C@]12C
Output: active

###

test system: P94_40; assay: qHTS profiling for inhibitors of Plasmodium falciparum proliferation (AID 504749); note: nearly all actives have a fitted effect of over 60% in size; details: P. falciparum in erythrocytes, SYBR Green DNA, 72 h; series mostly up to 28.7 µM
Results filed as inconclusive are left out. The source made the active and inactive calls. Calls follow the shape of the dose curve; as a rule, active = well fitted inhibition curve with a large enough effect; inconclusive = small, poorly fitted or top-dose-only effect; inactive = flat fitted curve, though single readings scatter.
reportedEndpoint: outcome

molecule	assayedSystem	result
O=C(O)CCC(=O)c1ccc(-c2ccccc2)cc1	P94_40	inactive
O=C(OC1C[C@@H]2CC3C[C@H](C1)N2CC3=O)c1c[nH]c2ccccc12 (stereo partly drawn)	P94_40	inactive
OCCOCCOCCO	P94_40	inactive

###

tested on: 7G8; assay: qHTS profiling for inhibitors of Plasmodium falciparum proliferation (AID 504749); note: nearly all actives have a fitted effect of over 60% in size; conditions: P. falciparum in erythrocytes, SYBR Green DNA, 72 h; series mostly up to 28.7 µM
Inconclusive results are not listed. The source made the active and inactive calls. Calls follow the shape of the dose curve; as a rule, active = well fitted inhibition curve with a large enough effect; inconclusive = small, poorly fitted or top-dose-only effect; inactive = flat fitted curve, though single readings scatter.
Outcome (select one): active, inactive

1. CC(=O)Nc1c(I)c(C(=O)O)c(I)c(N(C)C(C)=O)c1I inactive
2. CC(/C=C/C=C(\C)C(=O)O[C@@H]1O[C@H](CO[C@@H]2O[C@H](CO)[C@@H](O)[C@H](O)[C@H]2O)[C@@H](O)[C@H](O)[C@H]1O)=C\C=C\C=C(C)\C=C\C=C(/C)C(=O)O[C@@H]1O[C@H](CO[C@@H]2O[C@H](CO)[C@@H](O)[C@H](O)[C@H]2O)[C@@H](O)[C@H](O)[C@H]1O inactive
3. CCCCCCCCCCCCCCCCOCCOCCOCCOCCOCCOCCOCCOCCOCCOCCOCCOCCOCCOCCOCCOCCOCCOCCOCCOCCO active
4. C=CC(=O)O inactive
5. N[C@H](CC(=O)O)C(=O)O inactive
6. CN(C)CCC=C1c2ccccc2C(C)(C)c2ccccc21 active
7. COc1ccc2nc(NC(=O)Nc3ccccc3)sc2c1 active
8. CC(C)(C)c1ccc2c(S(=O)(=O)O)c(C(C)(C)C)ccc2c1 inactive
9. CCOC(C)OCC inactive
10. O=C(O)/C=C/C(=O)Nc1ccc(S(=O)(=O)Nc2nccs2)cc1 inactive

Task: State the result this test recorded for O=[n+]1ccn([O-])c2ccccc21 .
Output: inactive

Task: Lookup CCc1ncnc2cc(OC)c(OC)cc12
Output: inactive

Task: Continue with ClC(Cl)Cl
Output: inactive

###

Measured activity change, negative = inhibition, listed per entry for reference.
assay: NFAT Signaling Pathway (AID 444); settings: Jurkat NFAT-bla M1, carbachol, beta-lactamase ratio, 5 h; at 17.2 µM (top of the series) unless noted;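 note: carbachol stimulus at about its EC50 of 1 µM final; % is set by controls: 0 for no effect and ±100 for the full control effect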
Records with an inconclusive call do not appear. Activity calls are given as the source filed them. Calls come from the whole dose curve; as a rule, active = well fitted curve in either direction with a large enough effect (not every such curve was filed as active); inconclusive = small, poorly fitted or top-dose-only effect, or another doubt; inactive = flat fitted curve, though single readings scatter.

molecule	result
CN(CCO)CC(O)Cn1cnc2c1c(=O)n(C)c(=O)n2C (centres undefined) (tested in a mixture with another compound)	-24.9% (inactive)
CCc1cn([C@H]2C[C@H](O)[C@@H](CO)O2)c(=O)[nH]c1=O	23.4% (inactive)
CN1C(=O)OC(C)(C)C1=O	-1.31% (inactive)
CC1(C)S[C@@H]2[C@H](NC(=O)C3(N)CCCCC3)C(=O)N2[C@H]1C(=O)O	-19.8% (inactive)
O=C1NCCN1c1ncc([N+](=O)[O-])s1	-7.97% (inactive)

Task: For the molecule Cc1ncc(C[n+]2csc(CCO)c2C)c(N)n1 , what activity change, negative = inhibition is on record?
Output: -0.747% (inactive)

Task: Next entry: O=P(O)(O)OP(=O)(O)O
Output: 3.99% [at 7.69 µM] (inactive)

Task: Another molecule to check: N[C@@H](Cc1cc(I)c(Oc2ccc(O)c(I)c2)c(I)c1)C(=O)O
Output: 7.62% (inactive)

Task: Then Cc1cc(C)c(NC(=O)C[C@H](CC(=O)O)c2cccc3ccccc23)c(C(=O)N2CCC3(CCCC3)CC2)c1 ?
Output: -7.66% [at 38 µM] (inactive)

###

tested on: W2; experiment: qHTS profiling for inhibitors of Plasmodium falciparum proliferation (AID 504749); note: nearly all actives have a fitted effect of over 60% in size; conditions: P. falciparum in erythrocytes, SYBR Green DNA, 72 h; series mostly up to 28.7 µM
Inconclusive results are not listed. Activity calls are given as the source filed them. Calls come from the whole dose curve; as a rule, active = well fitted inhibition curve with a large enough effect; inconclusive = small, poorly fitted or top-dose-only effect; inactive = flat fitted curve, though single readings scatter.
Outcomes you can answer with include only these: t (active), f (inactive)

molecule	classAssignment
COc1ccc2c(=O)c(C)c(-c3ccccc3)oc2c1CN(C)C	t
CCC(Cc1c(I)cc(I)c(O)c1I)C(=O)O (configuration not stated)	f
O=C(O)COc1ccc(CCNS(=O)(=O)c2ccccc2)s1	f
O=C(O)c1ccc(OCCn2ccnc2)cc1	f
CN(C)CCCSc1ccccc1NC(=O)/C=C/c1ccccc1	t

Task: Check the results log: what was the call for CN1C(C(=O)Nc2ccccn2)C(=O)c2sc(Cl)cc2S1(=O)=O (configuration not stated) ?
Output: f

Task: // repeat for Cc1cccc(C)c1NC(=O)NC1=CCCN1C and report
Output: f

Task: Please give the result for OC[C@H]1O[C@@](CO)(O[C@H]2O[C@H](CO)[C@@H](O)[C@H](O)[C@H]2O)[C@@H](O)[C@@H]1O too.
Output: f

Task: Also O=C(O)COc1ccccc1/C=N/NC(=O)c1ccncc1 , if possible.
Output: f

Task: And for COC(=O)C(CN)c1c[nH]c2ccc(OC)cc12 (configuration not stated) ?
Output: f

Task: Now give it for C[C@H](CCC(=O)O)[C@H]1CC[C@H]2[C@@H]3CC[C@@H]4C[C@H](O)CC[C@]4(C)[C@H]3C[C@H](O)[C@]12C too.
Output: f

Task: Consider next the molecule Cc1cccc(Nc2ncccc2C(=O)O)c1C in the same way.
Output: f

Task: Now this one: CCCCCCCCCCCCCCCCCC(=O)OCC(C)O (configuration not stated)
Output: f

Task: Further, for C=CCCCCCCCCC(=O)OC ?
Output: f

Task: Here is the next molecule: CC(C)CCC[C@@H](C)[C@H]1CC[C@H]2[C@@H]3CC=C4C[C@@H](O)CC[C@]4(C)[C@H]3CC[C@]12C
Output: f

###

Assay: Cell Viability - NIH 3T3 (AID 541);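 note: cells exposed to compound for 40 hours; plate controls were DMSO alone for no effect and tamoxifen positive control for full effect; nearly all actives have a fitted effect of over 25% in size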
Conditions: NIH 3T3 cell viability, qHTS; at 92.2 µM (top of the series)
Description: NIH Chemical Genomics Center [NCGC] NIH Molecular Libraries Screening Centers Network [MLSCN] National Institutes of Environmental Health Sciences [NIEHS] National Toxicology Program [NTP] We have developed a 1536-well cell-based assay for quantitative high throughput screening (qHTS) against a number of cell lines to determine in vitro cytotoxicity of small molecules. […] 8. Detection; Luminescence; Viewlux plate reader […]
Inconclusive results are not listed.
In this section, each of the compounds is paired with its reported activity change, negative = cytotoxicity.
Just the number in %, nothing appended.

1) C/C=C/C=C/C(=O)O 8.21
2) O=P(O)(O)O -8.72
3) C[C@H]1O[C@@H](O[C@H]2[C@@H](O)C[C@H](O[C@H]3[C@@H](O)C[C@H](O[C@H]4CC[C@@]5(C)[C@H](CC[C@@H]6[C@@H]5C[C@@H](O)[C@]5(C)[C@@H](C7=CC(=O)OC7)CC[C@]65O)C4)O[C@@H]3C)O[C@@H]2C)C[C@H](O)[C@@H]1O -91
4) ClC(Cl)Cl -17.2

Task: So what's the measured activity change, negative = cytotoxicity for this one? C[C@H](CCC(=O)O)[C@H]1CC[C@H]2[C@@H]3CC[C@@H]4C[C@H](O)CC[C@]4(C)[C@H]3C[C@H](O)[C@]12C
Output: -91.1

src = PubChem BioAssay (NCATS)
